test system: human Factor 7 mRNA; assay: Antisense inhibition of human Factor 7 mRNA in HepB3 cells, 50 nM antisense oligonucleotide, lipofectin; assay type: cell-based; settings: lipofectin, 50 nM antisense oligonucleotide, approximately 24 hours, Factor 7 mRNA by real-time RT-PCR (RTS 2927), relative to untreated control
Strand notation (5' to 3'): a small letter for the sugar, then the base; units joined by * are phosphorothioate-linked, units joined directly phosphodiester-linked; [ ] holds rarer units or linkages, { } end groups; capitals alone tell only the bases. e = 2'-O-(2-methoxyethyl) (MOE); [5mC] = 5-methylcytosine; d = 2'-deoxy (DNA)
The reader will find reported % Inhibition values listed item by item below.
Report as a plain number; the unit % is understood.

Solved entries (count: 4):
INSERT INTO assay_data (substance, measured_result) VALUES
  ('416504 (antisense eT*e[5mC]*eA*eG*eA*dA*dA*dA*dG*d[5mC]*dT*d[5mC]*dT*d[5mC]*dA*eA*eG*eA*eA*e[5mC]) [compound 416504]', 0),
  ('416433 (antisense eA*eG*eA*eA*eA*dT*d[5mC]*d[5mC]*dA*dG*dA*dA*d[5mC]*dA*dG*e[5mC]*eT*eT*e[5mC]*eG) [compound 416433]', 0),
  ('407641 (antisense e[5mC]*e[5mC]*eT*eG*eA*dG*dG*d[5mC]*d[5mC]*dA*dG*d[5mC]*dA*dG*dA*eT*e[5mC]*eA*e[5mC]*eG) [compound 407641]', 73),
  ('416520 (antisense e[5mC]*e[5mC]*e[5mC]*eT*e[5mC]*dT*dG*d[5mC]*dA*dA*dA*dT*dA*dT*dG*eG*eG*eA*e[5mC]*e[5mC]) [compound 416520]', 14);

Shift focus to the following entry.
In: Looking for the measured % Inhibition of 416503 (antisense eT*eA*eG*e[5mC]*e[5mC]*dA*d[5mC]*d[5mC]*d[5mC]*d[5mC]*dG*d[5mC]*dG*dG*dG*e[5mC]*eT*eG*eG*e[5mC]) [compound 416503] , can you help?
Out: 0
